Tested on: Lipid bilayer
assay-notes: Vesicular anionophoric activity in large unilamellar vesicle membrane derived from egg-yolk L-alpha-phosphatidylcholine assessed as induction of relative efflux of chloride ions in presence of sodium (Na+) measured up to 300 seconds by using chloride-selective electrode
conditions: time <= 300.0 sec
Active and inactive are the calls of the source. No cut-off for these calls is given here.
measurement-name: Activity

Use the examples below as a reference point.
NS(=O)(=O)c1ccc(NC(=O)CCCCCNc2c(Nc3cc(Cl)cc(Cl)c3)c(=O)c2=O)cc1 = Active
NS(=O)(=O)c1ccc(NC(=O)CCCCCNc2c(Nc3ccc(Cl)cc3)c(=O)c2=O)cc1 = Active
COc1ccc(Nc2c(NCCCCCC(=O)Nc3ccc(S(N)(=O)=O)cc3)c(=O)c2=O)cc1 = Active
NS(=O)(=O)c1ccc(NC(=O)CCCCCNc2c(Nc3ccc(C(F)(F)F)cc3)c(=O)c2=O)cc1 = Active

// for each compound below, give its Activity
1. Cc1ccc(Nc2c(NCCCCCC(=O)Nc3ccc(S(N)(=O)=O)cc3)c(=O)c2=O)cc1
2. NS(=O)(=O)c1ccc(NC(=O)CCCCCNc2c(Nc3ccc(F)cc3)c(=O)c2=O)cc1
3. N#Cc1ccc(Nc2c(NCCCCCC(=O)Nc3ccc(S(N)(=O)=O)cc3)c(=O)c2=O)cc1
4. NS(=O)(=O)c1ccc(NC(=O)CCCCCNc2c(Nc3cc([N+](=O)[O-])cc([N+](=O)[O-])c3)c(=O)c2=O)cc1
5. NS(=O)(=O)c1ccc(NC(=O)CCCCCNc2c(Nc3cc(C(F)(F)F)cc(C(F)(F)F)c3)c(=O)c2=O)cc1
6. NS(=O)(=O)c1ccc(NC(=O)CCCCCNc2c(Nc3ccccc3)c(=O)c2=O)cc1
7. NS(=O)(=O)c1ccc(NC(=O)CCCCCNc2c(Nc3ccc([N+](=O)[O-])cc3)c(=O)c2=O)cc1

[out]
Active
Active
Active
Active
Active
Active
Active

[in] What Activity value was documented for this compound, NS(=O)(=O)c1ccc(NC(=O)CCCCCNc2c(Nc3ccc(Br)cc3)c(=O)c2=O)cc1 ?
[out] Active

* * *

Test system: Lipid bilayer
assay-notes: Vesicular anionophoric activity in large unilamellar vesicle membrane derived from egg-yolk L-alpha-phosphatidylcholine assessed as induction of relative efflux of chloride ions in presence of cesium (Cs+) measured up to 300 seconds by using chloride-selective electrode
conditions: time <= 300.0 sec
Calls of active or inactive are those of the source. No cut-off for these calls is given here.
measurement-name: Activity

Use the examples below as a reference point.
NS(=O)(=O)c1ccc(NC(=O)CCCCCNc2c(Nc3ccc([N+](=O)[O-])cc3)c(=O)c2=O)cc1 = Active
NS(=O)(=O)c1ccc(NC(=O)CCCCCNc2c(Nc3cc(Cl)cc(Cl)c3)c(=O)c2=O)cc1 = Active
COc1ccc(Nc2c(NCCCCCC(=O)Nc3ccc(S(N)(=O)=O)cc3)c(=O)c2=O)cc1 = Active
NS(=O)(=O)c1ccc(NC(=O)CCCCCNc2c(Nc3ccccc3)c(=O)c2=O)cc1 = Active
NS(=O)(=O)c1ccc(NC(=O)CCCCCNc2c(Nc3cc(C(F)(F)F)cc(C(F)(F)F)c3)c(=O)c2=O)cc1 = Active

// for each compound below, give its Activity
1. NS(=O)(=O)c1ccc(NC(=O)CCCCCNc2c(Nc3cc([N+](=O)[O-])cc([N+](=O)[O-])c3)c(=O)c2=O)cc1
2. NS(=O)(=O)c1ccc(NC(=O)CCCCCNc2c(Nc3ccc(F)cc3)c(=O)c2=O)cc1

[out]
Active
Active

* * *

Test system: HepG2
assay-notes: Disruption of homeostasis of chloride anions in golgi apparatus of human HepG2 cells assessed as increase in fluorescence intensity of 6-methoxy-1-(2-oxo-2-((4-sulfamoylphenyl)amino)ethyl)quinolin-1-ium Bromide measured after 12 hts by CLSM imaging analysis
Assay type: functional, cell-based
Please provide measured pEC50 for the entries that follow.
One number for each entry, as −log10 of the molar value.

// for each compound below, give its pEC50
1. NS(=O)(=O)c1ccc(NC(=O)CCCCCNc2c(Nc3ccccc3)c(=O)c2=O)cc1
2. NS(=O)(=O)c1ccc(NC(=O)CCCCCNc2c(Nc3cc(C(F)(F)F)cc(C(F)(F)F)c3)c(=O)c2=O)cc1

[out]
[4.51, 4.86]

* * *

Test system: HCT-8
assay-notes: Antiproliferative activity against human HCT-8 cells by MTT assay
Type: functional, cell-based
Please provide measured IC50 for the entries that follow.

Use the examples below as a reference point.
NS(=O)(=O)c1ccc(NC(=O)CCCCCNc2c(Nc3ccc([N+](=O)[O-])cc3)c(=O)c2=O)cc1 = > 50 µM
NS(=O)(=O)c1ccc(NC(=O)CCCCCNc2c(Nc3cc([N+](=O)[O-])cc([N+](=O)[O-])c3)c(=O)c2=O)cc1 = > 50 µM

API: the following record is the query input.
[in] What IC50 value was documented for this molecule, NS(=O)(=O)c1ccc(NC(=O)CCCCCNc2c(Nc3cc(C(F)(F)F)cc(C(F)(F)F)c3)c(=O)c2=O)cc1 ?
[out] > 50 µM
